# Relative Fluorescence Units (RFU), averaged over six replicates, F17dG per entry
target.or.system: F17dG lectin domain (Escherichia coli, UniProt Q47199)
measurement.context: CFG glycan array version 2; F17G at 200 µg/mL; SEM in parentheses

These recorded examples may help you get a feel for the data.
CC(=O)N[C@H]1[C@H](O[C@H]2[C@@H](O)[C@@H](CO)O[C@@H](OCCCN)[C@@H]2O)O[C@H](CO)[C@@H](O)[C@@H]1O = 16,277 (9,959) RFU
CC(=O)N[C@H]1[C@H](OCCN)O[C@H](CO)[C@@H](O)[C@@H]1O = 3,377 (643) RFU
NCCCO[C@@H]1O[C@H](CO)[C@@H](O)[C@H](O)[C@H]1N = 1,950 (1,358) RFU

Please report the recorded Relative Fluorescence Units (RFU), averaged over six replicates, F17dG for "CC(=O)N[C@H]1[C@H](OCCCN)O[C@H](CO)[C@@H](O)[C@@H]1O" .
2,514 (365) RFU

###

target.or.system: F17aG receptor-binding domain (Escherichia coli, UniProt Q99003)
Construct: variants of the lectin domains with oligolysine (4Lys) tails have been constructed; made in house; host or cells: E. coli (periplasm)
test.details: biochemical
measurement.context: SPR steady state, 25 °C, pH 7.4; read-out: Affinity range (Kd class), F17aG
# Kd per entry

CC(=O)N[C@H]1[C@H](Oc2ccc([N+](=O)[O-])cc2)O[C@H](CO)[C@@H](O)[C@@H]1O [pNP-GlcNAc, paranitrophenyl β-GlcNAc] = 0.1 to 1 mM
CO[C@@H]1O[C@H](CO)[C@H](O)[C@H](O[C@@H]2O[C@H](CO)[C@@H](O)[C@H](O)[C@H]2NC(C)=O)[C@H]1O [GlcNAcβ1,3Gal, GlcNAc(β1-3)Galβ1OMe] = 0.1 to 1 mM
CC(=O)N[C@H]1[C@H](O[C@H]2[C@H](O)[C@@H](NC(C)=O)C(O)O[C@@H]2CO)O[C@H](CO)[C@@H](O)[C@@H]1O (stereo partly drawn) [GlcNAcβ1,4GlcNAc] = 1 to 10 mM
CC(=O)N[C@H]1C(O)O[C@H](COP(=O)(O)O)[C@@H](O)[C@@H]1O (stereo partly drawn) [GlcNAc6PO3^2−] = > 100 mM
CO[C@@H]1O[C@H](CO)[C@H](O[C@@H]2O[C@H](CO)[C@@H](O)[C@H](O)[C@H]2NC(C)=O)[C@H](O)[C@H]1O [GlcNAcβ1,4Gal, GlcNAc(β1-4)Galβ1OMe] = 1 to 10 mM

Please report the recorded Kd for CC(=O)N[C@H]1C(O)O[C@H](CO)[C@@H](O[C@@H]2O[C@H](CO)[C@@H](O)[C@H](O)[C@H]2N)[C@@H]1O[C@H](C)C(=O)O (stereo partly drawn) [GlcNH2-MurNAc, glucosamine β1,4 N-actetylmuramic acid] .
10 to 100 mM

The origin of these recorded values is paper PMC3960879.
